# Test system: OVCA420 (Ovarian Carcinoma)
# ASSAY PROCEDURE: Bliss excess, mean over the matrix (fraction); higher = more synergy
OBSERVABLE: Bliss excess
Reply with just the number.

{"columns": ["COMPOUND", "TESTED SYSTEM", "ENDPOINT RESULT"],
 "data": [
  ["COc1cc2c(cc1OCCCCCOc1cc3c(cc1OC)C(=O)N1C=C(C)C[C@H]1C=N3)N=C[C@@H]1CC(C)=CN1C2=O [SG3199] + O=C(c1cc(Cc2n[nH]c(=O)c3ccccc23)ccc1F)N1CCN(C(=O)C2CC2)CC1 [Olaparib] (first compound max 0.001 µM, 7x7, partner max 10 µM)", "OVCA420 (Ovarian Carcinoma)", -0.0268]
]}

Problem: Quick check: Bliss excess on OVCA420 (Ovarian Carcinoma), item CC(=O)c1c(C)c2cnc(Nc3ccc(N4CCNCC4)cn3)nc2n(C2CCCC2)c1=O [Palbociclib] + Cc1c2c(nn1C)CSCc1cc(n(C)n1)CSc1cc(c3ccccc3c1)OCCCc1c(C(=O)O)n(C)c3c-2c(Cl)ccc13 [AZD5991] (first compound max 10 µM, 7x7, partner max 1 µM) ?
Result: -0.0313

Problem: Report Bliss excess for Cc1c2c(nn1C)CSCc1cc(n(C)n1)CSc1cc(c3ccccc3c1)OCCCc1c(C(=O)O)n(C)c3c-2c(Cl)ccc13 [AZD5991] + Cc1cc2ncnn2cc1Nc1ncc2c(n1)n(C1CCOCC1)c(=O)n2C [AZD7648] (first compound max 1 µM, 7x7, partner max 10 µM) tested on OVCA420 (Ovarian Carcinoma).
Result: -0.0531

Problem: Record lookup: for OVCA420 (Ovarian Carcinoma), what Bliss excess belongs to Cc1c2c(nn1C)CSCc1cc(n(C)n1)CSc1cc(c3ccccc3c1)OCCCc1c(C(=O)O)n(C)c3c-2c(Cl)ccc13 [AZD5991] + Cn1cnc2c(F)c(Nc3ccc(Br)cc3Cl)c(C(=O)NOCCO)cc21 [Selumetinib] (first compound max 1 µM, 7x7, partner max 3 µM) ?
Result: 0.0316

----------
# System: B-CPAP (Thyroid Gland Carcinoma)
# ASSAY PROCEDURE: Bliss excess, mean over the matrix (fraction); higher = more synergy
OBSERVABLE: Bliss excess

Worked examples follow.
{"columns": ["COMPOUND", "ENDPOINT RESULT"],
 "data": [
  ["CCN(CCO)CCCOc1ccc2c(Nc3cc(CC(=O)Nc4cccc(F)c4)[nH]n3)ncnc2c1 [AZD2811] + C=CCn1c(=O)c2cnc(Nc3ccc(N4CCN(C)CC4)cc3)nc2n1-c1cccc(C(C)(C)O)n1 [AZD1775] (first compound max 1 µM, partner max 1 µM)", -0.0363],
  ["Cc1c2c(nn1C)CSCc1cc(n(C)n1)CSc1cc(c3ccccc3c1)OCCCc1c(C(=O)O)n(C)c3c-2c(Cl)ccc13 [AZD5991] + C[C@@H]1COCCN1C2=NC(=NC(=C2)C3(CC3)[S@](=N)(=O)C)C4=C5C=CNC5=NC=C4 [AZD6738] (first compound max 1 µM, 7x7, partner max 10 µM)", 0.0032],
  ["CCN(CCO)CCCOc1ccc2c(Nc3cc(CC(=O)Nc4cccc(F)c4)[nH]n3)ncnc2c1 [AZD2811] + O=C(c1cc(Cc2n[nH]c(=O)c3ccccc23)ccc1F)N1CCN(C(=O)C2CC2)CC1 [Olaparib] (first compound max 1 µM, 7x7, partner max 10 µM)", 0.0104]
]}

Problem: Could you share which Bliss excess value was measured for COc1nnc2ccc(N3CCC(c4ccc(OCCN5CCN(C)C(=O)[C@H]5C)cc4)CC3)nn12 [AZD5153] + C=CCn1c(=O)c2cnc(Nc3ccc(N4CCN(C)CC4)cc3)nc2n1-c1cccc(C(C)(C)O)n1 [AZD1775] (first compound max 1 µM, partner max 1 µM) ?
Result: -0.0803

----------
Reported combination Emax values for a set of compounds
# Tested on: LS-180 (Colorectal Carcinoma)
# ASSAY PROCEDURE: combination Emax (second highest fraction inhibited in the dose matrix, 72 h); higher = more inhibition; extreme values may be limits of the assay
A bare number is all that is needed in reply.

{"columns": ["COMPOUND", "combination Emax"],
 "data": [
  ["N#Cc1cnc(Nc2cc(NC[C@H]3CNCCO3)c(C(F)(F)F)cn2)cn1 [SRA737] + Nc1ccn([C@@H]2O[C@H](CO)[C@@H](O)C2(F)F)c(=O)n1 [Gemcitabine] (first compound max 10 µM, 7x7, partner max 0.3 µM)", 0.804],
  ["CN(CCO)CC[C@H](CSc1ccccc1)Nc1ccc(S(=O)(=O)NC(=O)c2ccc(N3CCC([C@@H](O)c4ccccc4-c4ccc(Cl)cc4)CC3)cc2)cc1S(=O)(=O)C(F)(F)F [AZD4320] + Nc1ccn([C@@H]2O[C@H](CO)[C@@H](O)C2(F)F)c(=O)n1 [Gemcitabine] (first compound max 1 µM, 7x7, partner max 0.3 µM)", 0.66]
]}

Problem: Give recorded combination Emax with LS-180 (Colorectal Carcinoma) for the following compound: CN(CCO)CC[C@H](CSc1ccccc1)Nc1ccc(S(=O)(=O)NC(=O)c2ccc(N3CCC([C@@H](O)c4ccccc4-c4ccc(Cl)cc4)CC3)cc2)cc1S(=O)(=O)C(F)(F)F [AZD4320] + C=CCn1c(=O)c2cnc(Nc3ccc(N4CCN(C)CC4)cc3)nc2n1-c1cccc(C(C)(C)O)n1 [AZD1775] (first compound max 1 µM, partner max 1 µM)
Result: 0.422

----------
# System: TCCSUP (Bladder Carcinoma)
# ASSAY PROCEDURE: Bliss excess, mean over the matrix (fraction); higher = more synergy
OBSERVABLE: Bliss excess

In the examples that follow, each entry is paired with its recorded Bliss excess.
{"columns": ["COMPOUND", "Bliss excess"],
 "data": [
  ["C[C@@H]1COCCN1c1cc(C2([S@](C)(=N)=O)CC2)nc(-c2ccnc3[nH]ccc23)n1 [AZD6738] + O=C(c1cc(Cc2n[nH]c(=O)c3ccccc23)ccc1F)N1CCN(C(=O)C2CC2)CC1 [Olaparib] (first compound max 10 µM, 7x7, partner max 10 µM)", 0.067],
  ["CN(CCO)CC[C@H](CSc1ccccc1)Nc1ccc(S(=O)(=O)NC(=O)c2ccc(N3CCC([C@@H](O)c4ccccc4-c4ccc(Cl)cc4)CC3)cc2)cc1S(=O)(=O)C(F)(F)F [AZD4320] + Cc1cc2ncnn2cc1Nc1ncc2c(n1)n(C1CCOCC1)c(=O)n2C [AZD7648] (first compound max 1 µM, 7x7, partner max 10 µM)", -0.0325]
]}

Proceeding to the next compound to report its Bliss excess.
Problem: Can you look up the measured Bliss excess of Cn1cnc2c(F)c(Nc3ccc(Br)cc3Cl)c(C(=O)NOCCO)cc21 [Selumetinib] + C=CCn1c(=O)c2cnc(Nc3ccc(N4CCN(C)CC4)cc3)nc2n1-c1cccc(C(C)(C)O)n1 [AZD1775] (first compound max 10 µM, partner max 1 µM) for me?
Result: -0.0432

----------
# System: Ramos-2G6-4C10 (Burkitt's Lymphoma)
# ASSAY PROCEDURE: Bliss excess, mean over the matrix (fraction); higher = more synergy
Listed compounds paired with reported Bliss excess
Hey, just send me the number, nothing else.

These recorded examples may help you get a feel for the data.
{"columns": ["COMPOUND", "ENDPOINT RESULT"],
 "data": [
  ["CN(CCO)CC[C@H](CSc1ccccc1)Nc1ccc(S(=O)(=O)NC(=O)c2ccc(N3CCC([C@@H](O)c4ccccc4-c4ccc(Cl)cc4)CC3)cc2)cc1S(=O)(=O)C(F)(F)F [AZD4320] + CCN(CCO)CCCOc1ccc2c(Nc3cc(CC(=O)Nc4cccc(F)c4)[nH]n3)ncnc2c1 [AZD2811] (first compound max 1 µM, 7x7, partner max 1 µM)", 0.18],
  ["COc1nnc2ccc(N3CCC(c4ccc(OCCN5CCN(C)C(=O)[C@H]5C)cc4)CC3)nn12 [AZD5153] + Cc1c2c(nn1C)CSCc1cc(n(C)n1)CSc1cc(c3ccccc3c1)OCCCc1c(C(=O)O)n(C)c3c-2c(Cl)ccc13 [AZD5991] (first compound max 1 µM, 7x7, partner max 1 µM)", 0.0407]
]}

Problem: Requested field: Bliss excess. Item: CN(CCO)CC[C@H](CSc1ccccc1)Nc1ccc(S(=O)(=O)NC(=O)c2ccc(N3CCC([C@@H](O)c4ccccc4-c4ccc(Cl)cc4)CC3)cc2)cc1S(=O)(=O)C(F)(F)F [AZD4320] + Cn1cnc2c(F)c(Nc3ccc(Br)cc3Cl)c(C(=O)NOCCO)cc21 [Selumetinib] (first compound max 1 µM, 7x7, partner max 3 µM)
Result: 0.138

----------
Examples of compounds with documented combination Emax follow.
# Tested on: HCC1806 (Breast Carcinoma)
# ASSAY PROCEDURE: combination Emax (second highest fraction inhibited in the dose matrix, 72 h); higher = more inhibition; extreme values may be limits of the assay
Give the value as a plain number.

The following compounds have reported results that may help.
{"columns": ["COMPOUND", "ENDPOINT RESULT"],
 "data": [
  ["CC(=O)c1c(C)c2cnc(Nc3ccc(N4CCNCC4)cn3)nc2n(C2CCCC2)c1=O [Palbociclib] + CC1(C)CCC(CN2CCN(c3ccc(C(=O)NS(=O)(=O)c4ccc(NCC5CCOCC5)c([N+](=O)[O-])c4)c(Oc4cnc5[nH]ccc5c4)c3)CC2)=C(c2ccc(Cl)cc2)C1 [Venetoclax] (first compound max 10 µM, 7x7, partner max 1 µM)", 0.268],
  ["CN(C)CCCOc1ccc(-c2ccc3ncc4c(c3c2)n(C2CCOCC2)c(=O)n4C)cn1 [AZD0156] + CCN(CCO)CCCOc1ccc2c(Nc3cc(CC(=O)Nc4cccc(F)c4)[nH]n3)ncnc2c1 [AZD2811] (first compound max 1 µM, 7x7, partner max 1 µM)", 0.124]
]}

// next item, combination Emax requested
Problem: Query: combination Emax; subject: NC1(C(=O)N[C@@H](CCO)c2ccc(Cl)cc2)CCN(c2ncnc3[nH]ccc23)CC1 [Capivasertib] + CC(C)n1c(=O)n(C)c2cnc3cc(F)c(-c4ccc(OCCCN5CCCCC5)nc4)cc3c21 [AZD1390] (first compound max 10 µM, 7x7, partner max 0.3 µM)
Result: 0.267
